Measured ABUTH (Abutilon theophrasti) damage score values are reported for all entries that follow.
- System: a variety of test species
- Protocol summary: Post-emergence herbicidal activity
- Assay type: in vivo
- Design: key: 0 = no damage to plant, 5 = total damage to plant
- Run parameters: rate 1000 g/ha, evaluated after 13 days
Measured metric: ABUTH (Abutilon theophrasti) damage score

>>> df
                                   molecule              target_system  measured_number
0  COC1=C(C)C(=O)N(c2cc(C(F)(F)F)c(-c3ccc(S(C)(=O)=O)cc3)cn2)C1O (stereo not shown)  a variety of test species                4
1  CCOC1=C(C)C(=O)N(c2cc(C(F)(F)F)ccn2)C1O (stereo not shown)  a variety of test species                5
2  COC1=C(C)C(=O)N(c2cc(C)c(-c3ccc([N+](=O)[O-])cc3)cn2)C1O (stereo not shown)  a variety of test species                2
3  COC1=C(Cl)C(O)N(c2cc(C(C)(F)F)ccn2)C1=O (stereo not shown)  a variety of test species                5
4  CCC1=C(Cl)C(O)N(c2cc(C(F)(F)F)ccn2)C1=O (stereo not shown)  a variety of test species                2
5  COC1=C(C)C(=O)N(c2cc(C)c(-c3cccc(C#N)c3)cn2)C1O (stereo not shown)  a variety of test species                5
6  C=CCOC1=C(C)C(=O)N(c2cc(C(F)(F)F)ccn2)C1O (stereo not shown)  a variety of test species                5
7  COC1=C(C)C(=O)N(c2cc(C(F)(F)F)c(OCC3CCCO3)cn2)C1O (stereo not shown)  a variety of test species                5
8  COC1=C(C)C(=O)N(c2cc(OC(F)(F)F)ccn2)C1O (stereo not shown)  a variety of test species                4
9  COC1=C(C)C(=O)N(c2ncc(Br)c(C(F)(F)F)c2Br)C1O (stereo not shown)  a variety of test species                0

* * *

Measured ABUTH (Abutilon theophrasti) damage score values are reported for all entries that follow.
- Tested on: a variety of test species
- Protocol summary: Post-emergence herbicidal activity
- Assay type: in vivo
- Parameters: key: 0 = no damage to plant, 5 = total damage to plant
- Run parameters: rate 1000 g/ha, evaluated after 13 days
Measured metric: ABUTH (Abutilon theophrasti) damage score

>>> df
                                    compound  result
 0  COC1=C(C)C(=O)N(c2nccc(C(C)(C)C)n2)C1O (racemic) [DD1]       4
 1  COC1=C(C)C(=O)N(c2nccc(C(F)(F)F)c2Br)C1O (stereo not drawn) [AD25]       1
 2  COC1=C(C)C(=O)N(c2cc(C)c(-c3ccc(F)cc3C)cn2)C1O (stereo not drawn) [AD65]       4
 3  COC1=C(C)C(=O)N(c2cc(C)c(-c3cccc([N+](=O)[O-])c3)cn2)C1O (stereo not drawn) [AD118]       5
 4  CC1=C(Br)C(O)N(c2cc(C(F)(F)F)ccn2)C1=O (stereo not drawn) [AB1]       3
 5  COC1=C(C)C(=O)N(c2cc(C(C)(C)C)c(N3CC(F)(F)C3)nn2)C1O (stereo not drawn) [BD12]       5
 6  COC1=C(C)C(=O)N(c2cc(C(F)(F)F)c(-c3cccc(F)c3)cn2)C1O (stereo not drawn) [AD133]       5
 7  COC1=C(C)C(=O)N(c2cc(C(C)C)c(C(=O)NC(C)(C)C)cn2)C1O (stereo not drawn) [AD89]       5
 8  COC1=C(C)C(=O)N(c2cc(N3CCCCC3)ncn2)C1O (stereo not drawn) [CD1]       0
 9  COC1=C(C)C(=O)N(c2cc(C)c(-c3ccccc3F)cn2)C1O (stereo not drawn) [AD121]       5
10  COC1=C(C)C(=O)N(c2cc(C)c(-c3ccc(C)c([N+](=O)[O-])c3)cn2)C1O (stereo not drawn) [AD119]       2
11  CCc1cc(N2C(=O)C(C)=C(OC)C2O)ncc1-c1ccc(F)cc1 (stereo not drawn) [AD62]       4
12  COC1=C(C)C(=O)N(c2cc(C(F)(F)F)c(-c3ccccc3)cn2)C1O (stereo not drawn) [AD128]       5
13  COC1=C(C)C(=O)N(c2cc(C(F)(F)F)c(-c3ccccc3[N+](=O)[O-])cn2)C1O (stereo not drawn) [AD129]       5
14  CC1=C(Cl)C(O)N(c2cc(C#N)ccn2)C1=O (stereo not drawn) [AA20]       1
15  COC(=O)c1cnc(N2C(=O)C(C)=C(OC)C2O)cc1C(F)(F)F (stereo not drawn) [AD37]       4
16  COC1=C(C)C(=O)N(c2ncc(Cl)c(N(C)C)n2)C1O (racemic) [DD3]       3
17  COC1=C(C)C(=O)N(c2ccc(OC(F)(F)F)cn2)C1O (stereo not drawn) [AD47]       5
18  CCc1cc(N2C(=O)C(C)=C(OC)C2O)ncc1-c1ccc(F)cc1F (stereo not drawn) [AD106]       5
19  COC1=C(C)C(=O)N(c2cc(C)c(-c3ccc(F)cc3F)cn2)C1O (stereo not drawn) [AD122]       5
20  COC1=C(C)C(=O)N(c2cc(C(C)(C)C)ncn2)C1O (racemic) [CD3]       5
21  COC1=C(C)C(=O)N(c2cc(C)c(Cl)nn2)C1O (stereo not drawn) [BD11]       4
22  CCOC(=O)c1cnc(N2C(=O)C(C)=C(OC)C2O)cc1Cl (stereo not drawn) [AD68]       3
23  CC1=C(Cl)C(O)N(c2cc(C(F)(F)F)c(Cl)cn2)C1=O (stereo not drawn) [AA26]       1

* * *

- Tested on: a variety of test species
- Protocol summary: Post-emergence herbicidal activity
- Type: in vivo
- Run parameters: rate 250 g/ha, evaluated after 13 days
Measured SETFA (Setaria faberi) damage score values are reported for all entries that follow.
Measured metric: SETFA (Setaria faberi) damage score

>>> df
                                   compound                      measured_metric  measured_number
0  C=C(C)COc1cnc(N2C(=O)C(C)=C(OC)C2O)cc1C(F)(F)F (stereo not drawn)  SETFA (Setaria faberi) damage score                4
1  COC1=C(C)C(=O)N(c2cc(C(F)(F)F)c(OCCOCc3ccccc3)cn2)C1O (stereo not drawn)  SETFA (Setaria faberi) damage score                3
2  COC1=C(C)C(=O)N(c2cc(C(F)(F)F)c(OCCc3cccs3)cn2)C1O (stereo not drawn)  SETFA (Setaria faberi) damage score                3

* * *

- System: a variety of test species
- Protocol summary: Post-emergence herbicidal activity
- Type: in vivo
- Set-up: key: 0 = no damage to plant, 5 = total damage to plant
- Run parameters: rate 1000 g/ha, evaluated after 13 days
Measured ABUTH (Abutilon theophrasti) damage score values are reported for all entries that follow.
Measured metric: ABUTH (Abutilon theophrasti) damage score

                                    compound  measured_number
 0  COC1=C(C)C(=O)N(c2cc(C(F)(F)F)c(C(=O)NCc3ccccc3)cn2)C1O (stereo not drawn)                5
 1  COC1=C(C)C(=O)N(c2cc3c(cn2)CCCC3)C1O (stereo not drawn)                4
 2  CC(C)=C(C)c1cnc(N2C(=O)C(C)=C(Cl)C2O)cc1C(F)(F)F (stereo not drawn)                4
 3  COC1=C(C)C(=O)N(c2cc(C)c(-c3ccccc3)cn2)C1O (stereo not drawn)                5
 4  COC1=C(C)C(=O)N(c2cc(C(F)(F)F)ccn2)C1O (stereo not drawn)                5
 5  CCc1cc(N2C(=O)C(C)=C(OC)C2O)ncc1-c1ccoc1 (stereo not drawn)                4
 6  COC1=C(C)C(=O)N(c2cc(C)c(-c3ccc(F)cc3)cn2)C1O (stereo not drawn)                5
 7  CCc1cc(N2C(=O)C(C)=C(OC)C2O)ncc1-c1cccc(C#N)c1 (stereo not drawn)                5
 8  CC1=C(Cl)C(O)N(c2cc(C)c(-c3ccsc3)cn2)C1=O (stereo not drawn)                4
 9  COC1=C(C)C(=O)N(c2cc(C(F)(F)F)c(Oc3ccccc3)cn2)C1O (stereo not drawn)                5
10  COC1=C(Cl)C(O)N(c2cc(C(C)(C)C)ccn2)C1=O (stereo not drawn)                5
11  CCc1cc(N2C(=O)C(C)=C(OC)C2O)ncc1C=C(C)C (stereo not drawn)                4
12  COC1=C(C)C(=O)N(c2cc(C(F)(F)F)c(OCC(C)C)cn2)C1O (stereo not drawn)                5
13  COC1=C(C)C(=O)N(c2cc(Br)ncn2)C1O (racemic)                3
14  CC1=C(Cl)C(O)N(c2cc(C(F)(F)F)c(Br)cn2)C1=O (stereo not drawn)                1
15  CC(C)(C)C1=C(Cl)C(O)N(c2cc(C(F)(F)F)ccn2)C1=O (stereo not drawn)                0
16  COC1=C(C)C(=O)N(c2cc(C(C)(C)C)c(OC)nn2)C1O (stereo not drawn)                5
17  COC1=C(C)C(=O)N(c2cc(C(C)(C)CCl)ccn2)C1O (stereo not drawn)                5
18  CC1=C(Cl)C(O)N(c2cc(C(C)C)c(C(=O)NC(C)(C)C)cn2)C1=O (stereo not drawn)                3
19  COC1=C(C)C(=O)N(c2cc(C(F)(F)F)c(SC)cn2)C1O (stereo not drawn)                5
20  C=Cc1cnc(N2C(=O)C(C)=C(OC)C2O)cc1C(F)(F)F (stereo not drawn)                5
